Test: In vivo pharmacokinetics in mice
Settings: male, BALB/c, mouse, plasma, po, 3 mg/kg

| Compound | Tmax (min) |
| --- | --- |
| C=CC(=O)N1CC2CC(n3nc(-c4ccc(C(=O)Nc5ccccn5)cc4)c4c(N)ncnc43)CC2C1 (stereo not shown) | 15 |

----------
Test: In vivo pharmacokinetics in mice
Settings: male, BALB/c, mouse, plasma, iv, 1 mg/kg
Reported endpoint: half-life (min)

| Molecule | Measured number |
| --- | --- |
| C=CC(=O)N1CC2CC(n3nc(-c4ccc(C(=O)Nc5ccccn5)cc4)c4c(N)ncnc43)CC2C1 (stereo not shown) | 24.6 |

----------
Test: pH dependent solubility
Format: physicochemical
Conditions: purified water, water

| Compound | solubility |
| --- | --- |
| C=CC(=O)N1CC2CC(n3nc(-c4ccc(C(=O)Nc5ccccn5)cc4)c4c(N)ncnc43)CC2C1 (stereo not shown) | < 2 µM |

Source listed as paper PMC7424564.
